ASSAY: Thermodynamic solubility in various biorelevant media (PBS, SGN, FaSSIF, FeSSIF)
Assay type: physicochemical
STATED CONDITIONS: fasted state simulated intestinal fluid (FaSSIF), 25 °C, thermodynamic from solid, FaSSIF pH 6.8
MEASUREMENT KIND: solubility at 25 h (mg/mL)

| SMILES NOTATION | MEASUREMENT KIND | REPORTED VALUE |
| --- | --- | --- |
| CCOc1cccnc1Oc1cncc(-c2ncc(C(=O)N[C@@H]3CNC[C@@H](F)C3)cn2)c1 | solubility at 25 h | 0.955 |

###

ASSAY: Thermodynamic solubility in various biorelevant media (PBS, SGN, FaSSIF, FeSSIF)
Assay type: physicochemical
STATED CONDITIONS: simulated gastric fluid, 25 °C, thermodynamic from solid, SGN pH 1.2

| SMILES NOTATION | solubility at 25 h |
| --- | --- |
| CCOc1cccnc1Oc1cncc(-c2ncc(C(=O)N[C@@H]3CNC[C@@H](F)C3)cn2)c1 | > 27 mg/mL |

###

ASSAY: Intrinsic clearance in human liver microsomes
Assay type: in vitro ADME
STATED CONDITIONS: human, pooled human liver microsomes, pH 7.4, human liver microsome assay, 1 μM test compound; mean +/− STD Dev
Protocol: The incubations were conducted at 37° C. […] (Sorvall R C 3C Plus, Thermo Scientific, Waltham, Mass.).
Counter-ions that a name gives are not always drawn.

| MOLECULE | RESULT OPERATOR | microsomal CLint at 1 μM (µL/min/mg) |
| --- | --- | --- |
| CCOc1cccnc1Oc1cncc(-c2ncc(C(=O)NC3CCCNC3C)cn2)c1 (mixture of isomers) | < | 8 |
| CCOc1cccnc1Oc1cncc(-c2ncc(C(=O)NC3CCC(C(F)(F)F)NC3)cn2)c1 (single isomer, unassigned; ent-1) | = | 270 |
| CCOc1cc(F)cnc1Oc1cncc(-c2ncc(C(=O)N[C@H]3CNCC[C@@H]3F)cn2)c1 [Example 13, formate salt] | = | 35 |
| CCOc1cccnc1Oc1cncc(-c2ncc(C(=O)N[C@H]3CCC(C(F)(F)F)NC3)cn2)c1 (single isomer, unassigned) | < | 14 |
| CCOc1cccnc1Oc1cncc(-c2ncc(C(=O)NC3CNCC(F)(F)C3)cn2)c1 (stereo not drawn) | = | 23 |
| CCOc1cccnc1Oc1cncc(-c2ncc(C(=O)NC3CCCNC3)cn2)c1 (stereo not drawn) [Example 21, trifluoroacetate salt] | < | 8 |

###

# maps each entry to its CLint (+/−STD Dev)
ASSAY: Intrinsic clearance in human liver microsomes
Type: in vitro ADME
STATED CONDITIONS: human liver microsome assay, 1 μM test compound; mean +/− STD Dev
Structures can show the parent of a compound that is named as a salt.

| MOLECULE | RESULT OPERATOR | CLint (+/−STD Dev) (µL/min/mg) |
| --- | --- | --- |
| CCOc1cccnc1Oc1cncc(-c2ncc(C(=O)N[C@H]3CCOC3)cn2)c1 | = | 11 |
| CCOc1cccnc1Oc1cncc(-c2ncc(C(=O)N[C@@H]3CNCC[C@@H]3F)cn2)c1 [Example 3, bis(trifluoroacetate) salt] | < | 7 |
| CCOc1cc(F)cnc1Oc1cncc(-c2ncc(C(=O)N[C@H]3CCOC3)cn2)c1 | < | 9.6 |
| CCOc1cccnc1Oc1cncc(-c2ncc(C(=O)N[C@@H]3CNCC(F)(F)C3)cn2)c1 (single isomer, unassigned) | = | 34 |
| CCOc1cccnc1Oc1cncc(-c2ncc(C(=O)NC3CCC(C(F)(F)F)NC3)cn2)c1 (single isomer, unassigned; ent-2) | > | 290 |
| CCOc1cccnc1Oc1cncc(-c2ncc(C(=O)N[C@@H]3CCOC3)cn2)c1 | = | 17 |
| CCOc1cccnc1Oc1cncc(-c2ncc(C(=O)NC3(C)CCS(=O)(=O)C3)cn2)c1 (centres unmarked) | = | 30 |
| CCOc1cc(F)cnc1Oc1cncc(-c2ncc(C(=O)N[C@@H]3CNCC[C@@H]3F)cn2)c1 [Example 1, bis(trifluoroacetate) salt] | < | 7 |
| CCOc1cccnc1Oc1cncc(-c2ncc(C(=O)NC3CCS(=O)(=O)C3)cn2)c1 (centres unmarked) | < | 8 |
| CCOc1cccnc1Oc1cncc(-c2ncc(C(=O)NC3(CO)CCOC3)cn2)c1 (single isomer, unassigned) [WO2018033832 Ex. 6b] | < | 11 |
| CCOc1cccnc1Oc1cncc(-c2ncc(C(=O)NC3(CO)CCOC3)cn2)c1 (single isomer, unassigned) [WO2018033832 Ex. 6a] | = | 13 |
